# Test system: A549
# experiment.summary: NCI tumour cell line growth inhibition, 48 h
Active and inactive are the calls of the source. No stated cut-off is given here; in the data, active = GI50 up to about 1.1 µM and inactive = higher.
The reader will find reported GI50 values listed item by item below.
quantity.name: GI50

| molecule | quantity.name | reading |
| --- | --- | --- |
| O=C1C=CC(=O)c2c1ccc1c3ccccc3n(CCCCCCCCCCCCn3c4ccccc4c4ccc5c(c43)C(=O)C=CC5=O)c21 | GI50 | > 100 µM (inactive) |
| O=C1c2ccccc2CC12Cc1ccc3c(c1C2)CCC3 (centres undefined) | GI50 | 17.5 µM (inactive) |
| CCCCCCCCCCCCCCCCCCNC(=O)C(N)Cc1ccc(OCc2ccccc2)cn1 (centres undefined) | GI50 | 19.5 µM (inactive) |
| CC(=O)O[C@H]1C(N(C)C(=O)c2ccccc2)CC[C@]2(C)C3CC[C@@]4(C)C(CC(O)[C@@H]4C(C)N(C)C)[C@@H]3CCC12 (some centres undefined) | GI50 | > 100 µM (inactive) |

====

# Test system: SN12C
# experiment.summary: NCI tumour cell line growth inhibition, 48 h
Activity calls are given as the source filed them. Rule as the data show it: active = GI50 up to about 1.1 µM and inactive = higher.
Outcome codes: active, inactive

| compound | category.label |
| --- | --- |
| C=C1C(=O)O[C@H]2[C@H]1[C@@H](OC(=O)C=C(C)C)CC1=C[C@@H](C[C@@]3(C)O[C@@H]23)OC1=O | inactive |
| O=c1oc2ccc(Cl)cc2cc1-c1cn2ccsc2n1 | inactive |
| O=c1cc(NNc2ccc(F)cc2)[nH]c(=O)[nH]1 | inactive |
| CC(C)(CN1CCCCC1)C(=O)CC(SCCS(=O)(=O)O)c1ccc(Br)cc1 (configuration not stated) | inactive |
| O=C(c1ccc(Cl)cc1)c1ccc(OCCCOc2ccc(C(=O)c3ccc(Cl)cc3)cc2)cc1 | inactive |
| Cc1cc(O)c(C=O)c2c1C(=O)Oc1c(CO)c(O)c3c(c1O2)C(O)OC3=O (configuration not stated) | inactive |
| CC(=O)OC(C)(C)/C=C/C(=O)[C@](C)(O)[C@H]1[C@H](O)C[C@@]2(C)[C@@H]3CC=C4[C@@H](C[C@H](O)C(=O)C4(C)C)[C@]3(CO)C(=O)C[C@]12C | active |
| CN(C)c1nc(N(C)C)nc(N(C)C)n1 | inactive |
| CC(=O)CCC(=O)CC(O)(C(F)(F)F)C(F)(F)F | inactive |
| COc1cc(C2c3cc4c(cc3[C@H](OCCN(C)C)[C@@H]3COC(=O)C23)OCO4)cc(OC)c1O (some centres not stated) | active |
| COC(=O)C(=O)C(C(=O)C=C(C)C)C(=O)C(=O)Nc1nc2ccc([N+](=O)[O-])cc2s1 (configuration not stated) | inactive |
| CC(C)=NNc1snnc1C(N)=O | inactive |
| C[C@@H]1[C@@H]2[C@@H](C=C3C4CCC5Cc6nc7c(nc6C[C@@]5(C)C4C[C@H](O)[C@]32CO)CC2CCC3C4=C[C@H]5O[C@@]6(OC(C)(CO)C[C@@H]6O)[C@H](C)[C@@]5(O)[C@]4(C)[C@@H](O)CC3[C@]2(C)C7)O[C@]12CCC(C)(C)O2 (some centres not stated) | active |
| COc1cccc(Nc2nc(-c3cccs3)nc3cc(OC)c(OC)cc23)c1 | inactive |
| COc1cccc2c1CCc1sc(CN3CCN(C)CC3)nc1-2 | inactive |
| C/C(=C\COP(=O)(O)OP(=O)(O)O)CCCCCCOCc1ccccc1 | inactive |
| O=C1C=CC(=O)c2c1ccc1c3ccccc3n(-c3ccccc3[N+](=O)[O-])c21 | inactive |
